METHOD NOTES: Blood concentration (plasma pharmacokinetics after oral administration)
Assay type: in vivo
CONDITION LABEL: female, guinea pig, guinea pigs, oral 10 mg/kg, mean (n = 2)
PARAMETER MEASURED: AUC(0-t)
Number first, unit second: that is the form wanted.

q: Recorded AUC(0-t) of CC(C)(F)C(=O)NCc1ccc(C(F)(F)F)c(-c2nc(-c3ccc(C(F)(F)F)cn3)cc(=O)[nH]2)c1F , please.
a: 42.4 µM·h

* * *

METHOD NOTES: Blood concentration (plasma pharmacokinetics after oral administration)
Assay type: in vivo
CONDITION LABEL: female, guinea pig, guinea pigs, oral 10 mg/kg, mean (n = 2)
PARAMETER MEASURED: half-life (h)
Form entry: value (h) — number only.

q: Recorded half-life of CC(C)(F)C(=O)NCc1ccc(C(F)(F)F)c(-c2nc(-c3ccc(C(F)(F)F)cn3)cc(=O)[nH]2)c1F [Example 1] , please.
a: 13.3

* * *

METHOD NOTES: Blood concentration (plasma pharmacokinetics after oral administration)
Type: in vivo
CONDITION LABEL: female, guinea pig, guinea pigs, oral 10 mg/kg, mean (n = 2)
PARAMETER MEASURED: Tmax (h)
Form entry: value (h) — number only.

q: Recorded Tmax of CC(C)(F)C(=O)NCc1ccc(C(F)(F)F)c(-c2nc(-c3ccc(C(F)(F)F)cn3)cc(=O)[nH]2)c1F [Example 1] , please.
a: 1.5
